Test system: HT29 colon
Measurement notes: NCI-60 one-dose screen, 48 h
Conditions used: 10 µM unless noted
Procedure: Growth inhibition of the HT29 human tumor cell line is measured as a screen for anti-cancer activity. Cells are grown in 96 well plates and exposed to the test compound for 48 hours. Compounds are tested at a single concentration, which is 10^-5 M for most compounds. The reported endpoint is percent growth (GI% or GIPRCNT), where numbers from 0 - 100% represent growth inhibition, and numbers from -100% - 0 represent cell death. For example, a value of 40 represents 60% growth inhibition. […]
The panel holds about 83,000 compounds, 20% with a hit somewhere; the sample as a whole holds those more often. Activity calls are given as the source filed them. Rule for the calls: active = growth percent below 10; inactive = the rest.
Your answer must be one of the following: 1.0 (active), 0.0 (inactive)

{"Compound": "COC(=O)C1(C)COP(=O)(Nc2ccc(OC)cc2)OC1 (stereo unspecified)", "Class name": 0.0}
{"Compound": "COc1ccc(/C=C2\\NC(=O)NC2=O)cc1O", "Class name": 0.0}
{"Compound": "CCOC(=O)c1c(Cl)c2c(n1Cc1ccccc1)-c1oncc1CCC2", "Class name": 0.0}
{"Compound": "O=C(c1nc2ccccc2[nH]1)C1[C@@H](c2cccc(O)c2)C2CC3CCCCC3N2[C@@]12C(=O)Nc1cc(Cl)ccc12 (stereo partly specified)", "Class name": 0.0}
{"Compound": "COc1ccc(Cn2cc(Cn3cc(C=C4C(=O)NC(=O)NC4=O)c4ccccc43)nn2)cc1", "Class name": 0.0}
{"Compound": "CC1=NCC2NC(=O)NC(C)=C12 (stereo unspecified)", "Class name": 0.0}

Ask: Status in this test for COc1ccccc1C1=C(Br)C(=O)c2nc(C)ccc2C1=O ?
Result: 0.0

Ask: Called result for O=C(Nc1ccc(Br)cc1F)c1cc(I)ccc1O
Result: 0.0

Ask: Called result for CCCCC1COc2cccc3c2N1C=C/C3=C\C(=O)N(C)c1ccccc1 (stereo unspecified)
Result: 0.0
